pIC50: −log10 of the molar value.
Below, pIC50 values reported for Aurora kinase A (Homo sapiens) across several publications.

// worked examples, pIC50 included
c1ccc(COc2cccc(Nc3nccc(-c4nccs4)n3)c2)nc1: > 6.30
Cc1cc2cc(Nc3nccc(-c4c(C)c5n(c4C)CCNC5=O)n3)ccc2[nH]1: > 6.00
Cc1cccc(NC(=O)Nc2ccc(-c3ccc4c(-c5ccccc5)n[nH]c4c3)cc2)c1: < 4.90
CC(C)(O)Cn1nnc2cc(Nc3ncc(Cl)c(NC4CCN(c5ccc(C#N)cn5)CC4)n3)ccc21: 7.40
Cc1c(-c2ccnc(Nc3ccc(N4CCOC4=O)cc3)n2)c(C)n2c1C(=O)NCC2: > 6.00
c1ccc2cc(Nc3nccc(-c4nccs4)n3)ccc2c1: < 5.70
CC(C)(O)Cc1cnc2cc(Nc3ncc(Cl)c(NC4CCN(c5ccc(C#N)cn5)CC4)n3)ccn12: 5.84
O=C(c1ccco1)N1CCN(Cc2cccc(Nc3ncc(Cl)s3)n2)CC1: 7.92
Cc1cccc(NC(=O)Nc2ccc(-c3ccc4c(-c5ccc[nH]5)n[nH]c4c3)cc2)c1: 5.84
Cc1cc(Nc2nn(Cc3ccc(N)cc3)c(=O)c3ccccc23)n[nH]1: 7.00 to 9.00

Prompt: I'm curious: which pIC50 was measured for `COc1c(Nc2ncc(C(F)(F)F)c(Nc3cccc4c3C(=O)NC4)n2)ccc(N2CCCN(C)CC2)c1F` tested on Aurora kinase A (Homo sapiens)?
Response: 6.00 to 7.00

Prompt: API: value(readout=pIC50, system=Aurora kinase A (Homo sapiens)) for record `COc1cc2c(Oc3ccc(NC(=O)Nc4ccc(C(F)(F)F)cc4)cc3)ccnc2cc1OCC[C@H](N)C(=O)O`
Response: > 5.70

Prompt: Request body: readout pIC50, system Aurora kinase A (Homo sapiens), query Cn1cc(Nc2ncc(Cl)c(N[C@@H]3COC4C3OC[C@@H]4Nc3ccc(C#N)nn3)n2)cn1 (some centres unmarked) . Return the value.
Response: 7.35

* * *

Field: IC50. System: Aurora kinase A (Homo sapiens, UniProt O14965). Provenance: assorted publications.

Worked examples, 5 compounds total:
O=C1Nc2cc(Cl)ccc2/C1=C\c1ccc2cn[nH]c2c1: > 50000 nM
CNC(=O)Nc1ccc2c(Nc3cc(C)[nH]n3)nn(C(C)C)c(=O)c2c1: 1 to 100 nM
CCN1C(=O)C(C)(C)c2cc(Nc3ncc(F)c(Nc4ccc(C(=O)NC(C)(C)C)cc4)n3)ccc21: 10.8 nM
NCCCOc1ccc(Nc2nc(NC3CCCCC3)c3nc[nH]c3n2)cc1: 420 nM
COc1cc2c(Oc3ccc(NC(=O)c4ccc(F)cc4)cc3)ccnc2cc1OCC[C@H](N)C(=O)O: 2000 to 5000 nM

Prompt: Please give the measured IC50 for this compound: `CCN1CCN(C2CCN(c3ccc(Nc4ncc(Cl)c(Nc5cccc6c5C(=O)NC6)n4)c(OC(F)F)c3)CC2)CC1`
Response: 101 to 1000 nM

Prompt: Reported IC50 for `COc1cc2c(Oc3ccc(NC(=O)c4ccccc4)cc3)ncnc2cc1OCC[C@H](N)C(=O)O` : what is it?
Response: 2000 to 5000 nM

Prompt: Any idea what its IC50 is? The compound is `CCN(CC)CCOc1ccc(Nc2ncc(C(F)(F)F)c(Nc3cccc4c3C(=O)NC4)n2)cc1`
Response: 101 to 1000 nM
